System: HepG2 Srxn1-GFP reporter cells (+30 nM CDDO-Me)
Experiment: Srxn1-GFP intensity median modified Z-score relative to plate median; higher = stronger NRF2 / oxidative stress reporter activation, active = hit call of the paper
Conditions: 10 µM; exposure time: 24h
About 330 (14%) of roughly 2,300 compounds showed activity. The list is a sample of the results.
measurement-type: Srxn1-GFP intensity median modified Z-score
Returns: the value as a bare number; no unit string appended.

// Srxn1-GFP intensity median modified Z-score lookup, key: CCC(C)[C@H]1O[C@]2(C=C[C@@H]1C)C[C@@H]1C[C@@H](C/C=C(\C)[C@@H](OC3C[C@H](OC)C(O[C@H]4C[C@H](OC)[C@@H](NC(C)=O)[C@H](C)O4)[C@H](C)O3)[C@@H](C)/C=C/C=C3\CO[C@@H]4[C@H](O)C(C)=CC(C(=O)O1)[C@]34O)O2 (some centres not stated)
0.588

Any idea what Srxn1-GFP intensity median modified Z-score was measured for CCC(C)[C@H]1O[C@]2(CC[C@@H]1C)C[C@@H]1C[C@@H](C/C=C(\C)[C@@H](OC3C[C@H](OC)C(O[C@H]4C[C@H](OC)[C@@H](O)[C@H](C)O4)[C@H](C)O3)[C@@H](C)/C=C/C=C3\CO[C@@H]4[C@H](O)C(C)=CC(C(=O)O1)[C@]34O)O2 (some centres not stated) ?
0.921
